Consider the following binders; for each one, report its pKd.
Molecular target: T1, AFP158/HLA-A*02:01 complex (human)
T1 construct: flowed as analyte in SPR
Experiment: SPR, crude scFv captured, pMHC analyte;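 note: Peptide-MHC complex at several concentrations passed over captured scFv, association then buffer-driven dissociation, on- and off-rates fitted from the curves and KD estimated from them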
Give bare numbers, as −log10 of the molar value.

AS170036 VL1VH1-VHG108M (scFv) scFv: QSALTQPRSVSGSPGQSVTISCAGTSSDVGSENYVSWYQQHPGKAPKLMIYQVNKRASGVPDRFSGSKSGNTASLTISGLQAEDEADYYCASYRSSDHNIVFGGGTKLTVLGGGGSGGGGSGGGGSEVQLVESGGGLVQPGGSLRLSCAASGFTFSSYAMSWVRQAPGKGLEWVSTINSGTGSPYYADSVKGRFTISRDNSKNTLYLQMNSLRAEDTAVYYCAKNFFDGSWFLMPPAMDYWGQGTLVTVSSHHHHHH; 7.24

Next binder, pKd to be filled in.
// query Form field: reported pKd of AS170036 VL1VH1-VLH98A (scFv) scFv: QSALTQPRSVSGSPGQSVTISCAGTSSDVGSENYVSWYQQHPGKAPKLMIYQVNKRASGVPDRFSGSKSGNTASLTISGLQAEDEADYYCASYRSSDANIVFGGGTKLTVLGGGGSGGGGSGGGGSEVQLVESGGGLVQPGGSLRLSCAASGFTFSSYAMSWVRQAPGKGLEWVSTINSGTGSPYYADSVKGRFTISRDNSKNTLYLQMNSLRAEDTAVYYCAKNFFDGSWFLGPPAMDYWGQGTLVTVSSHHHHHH
// result 6.96
